system: RXF 393 renal; test: NCI tumour cell line growth inhibition, 48 h; in the data active = GI50 below about 0.43 µM; inactive = the rest
Select the correct class. Options are active, inactive and nothing else.

molecule | system-name | qualitative-label
CC1(C)C2CCC13C(=O)C1OC3(C2)C2C(=O)c3ccccc3C(=O)C12 (stereo not drawn) | RXF 393 renal | inactive
CSC1=C(N)C(=O)c2[nH]cc(CO)c2C1=N | RXF 393 renal | active
Cc1cc(F)ccc1S(=O)(=O)Nc1cc(-c2c(O)ccc3ccccc23)c(O)c2ccccc12 | RXF 393 renal | inactive
O=C(Nc1cccc(-n2cc(-c3ccncc3)c(-c3ccc(Cl)c(O)c3)n2)c1)Nc1cc(C(F)(F)F)cc(C(F)(F)F)c1 | RXF 393 renal | inactive
COc1ccc2c(c1)NC1=C(C(=O)OC1)C2c1cc(OC)c2c(c1)OCO2 (stereo not drawn) | RXF 393 renal | active
COc1ccc(C/C(C)=C(/c2ccc(OCCN3CCCCC3)cc2)c2ccc(OC(=O)NCc3ccccc3)cc2)cc1 | RXF 393 renal | inactive

Exercise: What did the test return for COc1ccc(CCN2CC=Cn3c2nc2ccccc2c3=O)cc1 ?
Solution: active

Exercise: What did the test return for CCCCCCC[CH2][Sn]([CH2]CCCCCCC)([O]c1cccc2cccnc12)[O]c1cccc2cccnc12 ?
Solution: inactive

Exercise: What did the test return for O=C1c2cc3c(cc2[C@@H]2[C@H]1c1ccc([N+](=O)[O-])cc1C(=O)N2CCCBr)OCO3 ?
Solution: active

Exercise: What did the test return for Nc1ncnc2c1N=C(c1ccc3c(c1)OCO3)CC(c1ccc([N+](=O)[O-])cc1)N2 (stereo not drawn) ?
Solution: inactive

Exercise: What did the test return for Cc1cc2c(C(C)C)c(O)c(O)cc2c(O)c1-c1c(C)cc2c(C(C)C)c(O)c(O)cc2c1O ?
Solution: inactive

Exercise: What did the test return for CC(=O)[CH-]C(=O)c1ccccc1.CC(=O)[CH-]C(=O)c1ccccc1.CC[O-].CC[O-].[Hf+4] ?
Solution: inactive

Exercise: What did the test return for CCCCOC(=O)N1CCN(/[N+]([O-])=N/Oc2ccc([N+](=O)[O-])cc2[N+](=O)[O-])CC1 ?
Solution: inactive
